tested on: MRC5; assay: Selectivity index measured as CC50/IC50; type: functional, Homo sapiens
Each entry gets 0 (no) if its SI stays under 30, and 1 (yes) if its SI is 30 or above.

Molecular String	Label
O=C(/C=N/NCc1ccccc1)NCCCCCCCNc1ccnc2cc(Cl)ccc12	1 (yes)
O=C(/C=N/Nc1c(Cl)cc(C(F)(F)F)cc1Cl)NCCCCCCCNc1ccnc2cc(Cl)ccc12	1 (yes)
O=C(/C=N/Nc1ccnc2cc(Cl)ccc12)NCCCCCCCNc1ccnc2cc(Cl)ccc12	1 (yes)
O=C(/C=N/Nc1ccc([N+](=O)[O-])cc1[N+](=O)[O-])NCCCCCCCNc1ccnc2cc(Cl)ccc12	1 (yes)
Cc1cc(N/N=C/C(=O)NCCCCCCCNc2ccnc3cc(Cl)ccc23)nc2c1c(C)nn2C	0 (no)
O=C(/C=N/OCc1ccc([N+](=O)[O-])cc1)NCCCCCCCNc1ccnc2cc(Cl)ccc12	0 (no)
COc1ccc2nc(N/N=C/C(=O)NCCCCCCCNc3ccnc4cc(Cl)ccc34)nnc2c1	1 (yes)

* * *

target: Histidine-rich protein PFHRP-II (Plasmodium falciparum) (UniProt P05227); assay: In vitro inhibition of beta-hematin formation in Plasmodium falciparum at 100 uM; assay type: functional
Sequence (P05227 whole entry): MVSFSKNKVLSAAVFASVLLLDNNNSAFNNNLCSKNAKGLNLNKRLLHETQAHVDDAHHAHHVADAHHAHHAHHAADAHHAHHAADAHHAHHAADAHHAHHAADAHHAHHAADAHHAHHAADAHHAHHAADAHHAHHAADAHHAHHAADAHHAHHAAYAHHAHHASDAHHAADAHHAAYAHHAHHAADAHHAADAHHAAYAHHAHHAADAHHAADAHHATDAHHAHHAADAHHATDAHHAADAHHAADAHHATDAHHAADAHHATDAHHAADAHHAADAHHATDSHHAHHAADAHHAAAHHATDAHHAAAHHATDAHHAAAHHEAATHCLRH

Molecular String	inhibition [%]
O=C(/C=N/Nc1ccccc1)NCCCCCCCNc1ccnc2cc(Cl)ccc12	0
COc1ccc2nc(N/N=C/C(=O)NCCCCCCCNc3ccnc4cc(Cl)ccc34)nnc2c1	28
O=C(/C=N/Nc1ccc(Cl)nn1)NCCCCCCCNc1ccnc2cc(Cl)ccc12	0
Cc1cc(N/N=C/C(=O)NCCCCCCCNc2ccnc3cc(Cl)ccc23)nc2c1c(C)nn2C	0
CN(/N=C/C(=O)NCCCCCCCNc1ccnc2cc(Cl)ccc12)c1ncccc1[N+](=O)[O-]	18
CO/N=C/C(=O)NCCCCCCCNc1ccnc2cc(Cl)ccc12	4
O=C(/C=N/Nc1ccc([N+](=O)[O-])cc1[N+](=O)[O-])NCCCCCCCNc1ccnc2cc(Cl)ccc12	25
